src = the nanobody polyreactivity screen of Harvey et al. (2022)

assay: yeast display, Sf9 membrane polyspecificity reagent, FACS + sequencing; frameworks hold sequencing errors
Result Type: polyreactivity (PSR sort gate)

Some entries whose results are on file:
>  <Polymer Sequence>
QVQLVESGGGLVQAGGSLRLSCAASGRTFYGYAMGWYRQAPGKERELVAAITRSGGSTYYADSVKGRFTISRDNAKNTVYLQMNSLKPEDTAVYYCAAGGQARHDNWGQGTQVTVSS

>  <Result Type>
polyreactivity (PSR sort gate)

>  <Result>
low polyreactivity

$$$$
>  <Polymer Sequence>
QVQLVESGGGLVQAGGSLRLSCAASGSTFGRYGMGWYSQAPGKERELVAAISKNAGSTYYADSVKGRCTISRDNAKNTVYLQMNSLKPEDTAVYYCAADWRTKGYDSLGQGTQVTVSS

>  <Result Type>
polyreactivity (PSR sort gate)

>  <Result>
high polyreactivity

$$$$
>  <Polymer Sequence>
QVQLVESGGGLVQAGGSLRLSCAASGSTFDYYDMGWYRQSPGKERELVAAISSGGDSTYYADSVKGRFTISRDNAKNTVYLQMNSLKPEDTAVYNCAAAVYYGQSVWYYYWGQGTQVTVSS

>  <Result Type>
polyreactivity (PSR sort gate)

>  <Result>
high polyreactivity

$$$$
>  <Polymer Sequence>
QVQLVESGGGLVQAGGSLRLSCAASGSIFHYNAMGWYRQAPGKERELVARISVNGGRTYYADSVKGRFTISRDNAKNTVYLQMNSLKPEDTEVYYCAVEGVWRSFFYGYDSWGQGTQVTVSS

>  <Result Type>
polyreactivity (PSR sort gate)

>  <Result>
low polyreactivity

$$$$

Let's switch to this sequence now.
Input: # lookup: polyreactivity (PSR sort gate) of "QVQLVESGGGLVQEGGSLRLSCAASGRLFGTYTMGWYRQAPGKERELVAAISWSGGNTYYADSVKGRFTISRDNAKNTVYLQMNSLKPEDTAVYYCNALYYRPPKWYGYWGQGTQVTVSS"
Output: high polyreactivity

====

assay: yeast display, Sf9 membrane polyspecificity reagent, FACS + sequencing; frameworks hold sequencing errors
Result Type: polyreactivity (PSR sort gate)

>  <Polymer Sequence>
QVQLVESGGGLVQAGGSLRLSCAASGYIFGYYVMGWYRQAPGKERELVAAISGRGGRTYYADSVKGRFTISRDNAMNTVYLQMNSLKPEDTAVYYCAAADLPGTMYYWGQGTQVTVSS

>  <Result>
high polyreactivity

$$$$
>  <Polymer Sequence>
QVQLVESGGGLVQAGGSLRLSCAASGGTIAPYAMGWYRQAPGKERELVATISYSGTSTNYADSVKGRFTISRDNAKNTVYLQMNSLKPEDTAVYYCAKRYHQYRWRGWLWGFDYWGQGTQVTVSS

>  <Result>
high polyreactivity

$$$$
>  <Polymer Sequence>
QVQLVESGGGLVQAGGSLRLICAASGFTFYLYTMGWYRQAPGKERELVAAISWRGGGTYYADSVKGRFTISRDNAKNTVYLQMNSLKPEDTEVYYCAAYWRRRLVYYYWGQGTQVTVSS

>  <Result>
high polyreactivity

$$$$

====

assay: yeast display, Sf9 membrane polyspecificity reagent, FACS + sequencing; frameworks hold sequencing errors
Result Type: polyreactivity (PSR sort gate)

Some entries whose results are on file:
>  <Polymer Sequence>
QVQLVESAGGLVQAGGSLRLSCPASGGISALYAMGWYRQAPGKERELVAAISASGGSTYYADSVKGRFTISRDNAKNTVYLQMNSLKPEDTAVYYCNVAVLTSDIYSTTIYYYGIYDYWGQGTQVTVSS

>  <polyreactivity (PSR sort gate)>
high polyreactivity

$$$$
>  <Polymer Sequence>
QVQLVESGGGLVQAGGSLRLSCAASGSTFSSYTMGWYRQAPGKERELVAAISRSGGRTYYADSVKGRFTISRDNAKNTVYLQMNSLKPEDTAVYYCNAGLGIEYDYWGQGTQVTVSS

>  <polyreactivity (PSR sort gate)>
low polyreactivity

$$$$
>  <Polymer Sequence>
QVQLVESGGGLVQAGGSLRLSCAASGFTFDWNAMGWYRQAPGKERELVAAISNSDGSTYYADSVKGRFTISRDNAKNTVYLQMNSLKPEDTAVYYCNKLYRGGWYAYWGQGTQVTVSS

>  <polyreactivity (PSR sort gate)>
low polyreactivity

$$$$
>  <Polymer Sequence>
QVQLVESGGGLVQAGGSLRLSCAASGFTFGYYTMGWYRQAPGKERELVAAITWRGTTYYADSVKGRFTISRDNAKNTVYLQMNSLKPEDTAVYYCATVVLLRIWGGYWGQGTQVTVSS

>  <polyreactivity (PSR sort gate)>
high polyreactivity

$$$$

Let's switch to this sequence now.
Input: # lookup: polyreactivity (PSR sort gate) of "QVQLVESGGGLVQAGGSLRLSCAASGTTFWRYTMGWYRQAPGKERELVAAISTRGGSTTYADSVKGRFTISRDKAKNNVYLQMNSLKPEDTAVYYCNADGYRGYYGRNKSKYDYWGQGTQVTVSS"
Output: high polyreactivity

====

assay: yeast display, Sf9 membrane polyspecificity reagent, FACS + sequencing; frameworks hold sequencing errors

>  <Polymer Sequence>
QVQLVESGGGLVQAGGSLRLSCAASGSTFLSYAMGWYRQAPGKERELVAAISWSGGRTYYADSVKGRFTISRDNAKNTVYLQMNSLKPEDTAVYYCAARHVPFTKHEYEYWGQGTQVTVSS

>  <polyreactivity (PSR sort gate)>
low polyreactivity

$$$$
>  <Polymer Sequence>
QVQLVQSGGGLVQAGGSHRLSCAASGSTFKPYALGWYRQSPGKETELVAASSRGTRTYADSVKGRFTISRDNAKNTVYLQMNSVKPEDTAVYYCAAEWRLTFGYHYEFDYWGQGTQVTVSS

>  <polyreactivity (PSR sort gate)>
low polyreactivity

$$$$

====

experiment: yeast display, Sf9 membrane polyspecificity reagent, FACS + sequencing; frameworks hold sequencing errors
Result Type: polyreactivity (PSR sort gate)

>  <Polymer Sequence>
QVQLVESGGGLVQAGGSLRLSCAASGSTFVGNAMGWYRQAPGKERELVAAITWSGGTYYADSVKGRFTISRDNAKNTVYLQMNSLKPEDTAVYYCNAEWRVYPDLYDYWGQGTQVTVSS

>  <polyreactivity (PSR sort gate)>
low polyreactivity

$$$$
>  <Polymer Sequence>
QVQLVESGGGLVQAGGSLRLSCAASGSIFGVYAMGWYRQAPGKERELVAAISWSGTSTYYADSVKGRFTISRDNAKNTVYLQMNSLKPEDTAVYYCNADWVLDGYDYDYWGQGTQVTVSS

>  <polyreactivity (PSR sort gate)>
low polyreactivity

$$$$
>  <Polymer Sequence>
QVQLVESGGGLVQAGGSLRLSCAASGSLFPLYAMGWYRQAPGKERELVAAITWRGGSTYYADSVKGRFTISRDNAKNTVYLQMNSLKPEDTAVYYCNRDLVPRFDYWGQGTQVTVSS

>  <polyreactivity (PSR sort gate)>
low polyreactivity

$$$$
>  <Polymer Sequence>
QVQLVESGGGLVQAGGSLRLSCADSGSTFWYDMGWYRQAPGKERELVAAISDAGSTYYADSVKGRFTISRDNAKITVYLQMNSLKPEDTGFYFCAADGVYWRWYLYTFWMDYWGQGTQVTVSS

>  <polyreactivity (PSR sort gate)>
low polyreactivity

$$$$
>  <Polymer Sequence>
QVQLVESGGGLVQAGGSLRLSCAASGSIFYHNAMGWYRQAPGKERELVAAITWSGSTTYYADSVKGRFTISRDYAKNTVYLQMNSLKPEDTAVYYCNAGNRHGHYDYYWGQCTQVTVSS

>  <polyreactivity (PSR sort gate)>
low polyreactivity

$$$$

Input: # lookup: polyreactivity (PSR sort gate) of "QVQLVESGGGLVQAGGSHRLSCAATGLTFAYYDMGWYRQAPGKERELVAAITSGGTTNYADSVKGRFTISRDNAKNTVYLQMNSLKPEDTAVYYCNADYYSRIVGVRIYDYWGQGTQVTVSS"
Output: low polyreactivity

Input: # lookup: polyreactivity (PSR sort gate) of "QVQLVESGGGLVQAGGSLRLSCAASGFIFSRYVMGWYRQAPGKERELVAAISSSGGRTYYADSVKGRFTISRDNAKNTVYLQMNCLKPEDTAVYYCAAKPLPGGADTTSPRYDYWGQGTQVTVSS"
Output: high polyreactivity

====

test: yeast display, Sf9 membrane polyspecificity reagent, FACS + sequencing; frameworks hold sequencing errors
Result Type: polyreactivity (PSR sort gate)

>  <Polymer Sequence>
QVQLVESGGGLVQAGGSLRLSCAASGITFVGNAMGWYRQAPGKERELVAGIRGNGGSTYYADSVKGRFTISRDNAKYTVYLQMNSLKPEDTAVYYCAAAAYYADFDYWGQGTQVTVSS

>  <polyreactivity (PSR sort gate)>
low polyreactivity

$$$$
>  <Polymer Sequence>
QVQLVESGGGLVQAGGSLRLTCAATGRTFYNGMGWYRQAPGKERELVAAISRGGSTYYADSVKGRFTISRDNAKNTFYLQMTSLKPEDTAVYYCAIDQSRYVYVTLRGGYWGLGTQVTVSS

>  <polyreactivity (PSR sort gate)>
low polyreactivity

$$$$
>  <Polymer Sequence>
QVQLVESGGGLVQAGGSLRLSCAASGSIFPYNAMGWYRQAPGKERELVAAISRSGGSTYYADSVKGRFTISRDNAKNTVYLQMNSLKPEDTAVYYCAAYSLYWRDDYWGQGTQVTVSS

>  <polyreactivity (PSR sort gate)>
high polyreactivity

$$$$
>  <Polymer Sequence>
QVQLVESGGGLVQAGGSLRLSCAASGRIFFSYAMGWYRQAPGKERELVAAINGRGGSTYYADSVKGRFTISRDNAKNTVYLQMNSLKPEDTAVYYCAATAFSKGSSWKPYYYWGQGTQVTVSS

>  <polyreactivity (PSR sort gate)>
low polyreactivity

$$$$
>  <Polymer Sequence>
QVQLVESGGGLVQAGGSLRLSCAASGLIFDVYDMGWYRQAPGKERELVAAISTTGGSTFYADSVKGRFTISRDNAKNTVYLQMYSLKPEDTAVYYCNADWAPTGFSGGYPYDYWGQGTQVTVSS

>  <polyreactivity (PSR sort gate)>
high polyreactivity

$$$$
>  <Polymer Sequence>
QVQLVESGGGLVQAGGSLRLSCAASGRTFDRDAKGWYRQAPGKERELVAVIRFIGGSTYYAYSVKGRFTISRDNAKNTVFLQMNSLKQEDTAVYDCATRGPIWGQRYYKGYYWGQGTQVTVSS

>  <polyreactivity (PSR sort gate)>
low polyreactivity

$$$$
>  <Polymer Sequence>
QVQLVETGGGLVQAGGSLRISCAASGIIFRNYAKGWYTQAPGKERELVADISWSGGTTYYADSVKGRFTISRDNEKHTVYLQMNSLKPEDTAVYYCAASSYRRQYGYWGQGTQVTVSS

>  <polyreactivity (PSR sort gate)>
high polyreactivity

$$$$
>  <Polymer Sequence>
QVQLVESGGGLVQAGGSLRLSCAASGSTFYSYAMGWYRQAPGKERELVAAITSGGSTNYADSVKGRFTISRDNAKNTVYLQMNRLKPEDTAVYYCARKYWHRSYGYDYWGQGTQVTVSS

>  <polyreactivity (PSR sort gate)>
low polyreactivity

$$$$

Input: # lookup: polyreactivity (PSR sort gate) of "QVQLVESGGGLVQAGGSLRLSCAASGITLKLYVMGWYRQAPGKERELVAAISRRGGSTYYADSVKGRFTISRDNAKNTVYLQMNSLKPEDTAVYYCAKDGTQYERQDPAYGYWGQGTQVTVSS"
Output: high polyreactivity

Input: # lookup: polyreactivity (PSR sort gate) of "QVQLVESGGGLVQAGGSHRLSCAASGGTFRSNAMGWYRQAPGKERELVAAITSNGGRTYYADSVKGRFTISRDNAKNTVYLQMNSLKPEDTAVYYCAALGGYRRPLYGYDYWGQGTQVTVSS"
Output: high polyreactivity

Input: # lookup: polyreactivity (PSR sort gate) of "QVQLVESGGGLVQAGGSLRLSCAASGSIFGRNAMGWYRPAPGKERELVAAISRRGGNTYYADSVKGRFTISRDNAKNTVYLQMNSLKPEDTAVYYCAAEVKTSYSYTHDGYWGQGTQVTVSS"
Output: high polyreactivity

Input: # lookup: polyreactivity (PSR sort gate) of "QVQLVESGGGLVQAGGSLRLSCAASGITFGRYVMGWYRQAPGKERELVATISSGGRTKYADSVKGRFSISRDNAKNTVYLQMNSLKPEDTAGYYCNAESPKWPWYSGFDYWGQGTQVTVSS"
Output: high polyreactivity

Input: # lookup: polyreactivity (PSR sort gate) of "QVQLVESGGGLVQAGGSLRLSCAASGNTFKGYAMGWYRQAPGKERELVAAISWSGSSTYYADSVKGRFTISRDNAKNTVYVQMISLKPEDTAVYYCNRKYLGRYASVYGYGYWGQGTQVTVSS"
Output: high polyreactivity

Input: # lookup: polyreactivity (PSR sort gate) of "QVQLVESGGGLVQAGGSLRLSCAASGRTFYSYAMGWYRQAPGKERELVAAISRAGGTYYADSVKGRFTISRDNAKNTVYLQMNSLKPEDTAVYYCAARQAVYGLRSDFYYWGQGTQVTVSS"
Output: high polyreactivity

Input: # lookup: polyreactivity (PSR sort gate) of "QLQLVESGGGLVQAGGSLRLSCAASGSIYYEKVMGWYRQAPGKERELVAGISRSGGRTYYADSVKGRFTISRDNAKNTVYLQMNSLKPEDTAVYYCAALTPRNRYRKFDYWGQGTQVTVSS"
Output: high polyreactivity
